system: NOMO-1; format: cell-based; settings: CD74 ADC with the named linker-payload, 5 days; read-out: NOMO-1 IC50
Quantity name: IC50

Solved entries (count: 2):
INSERT INTO measurements (compound, result) VALUES
  ('COCCOCCOCCOCCOCCOCCOCCOCCOCCOCCOCCOCCOCCOCCOCCOCCn1cc(COCc2cc(NC(=O)[C@H](CCCNC(N)=O)NC(=O)[C@@H](NC(=O)CCOCCN3C(=O)C=CC3=O)C(C)C)ccc2C[N+]2(C)CCN(CCOc3ccc(-c4c(-c5ccc(F)cc5)sc5ncnc(O[C@H](Cc6ccccc6OCc6ccnc(-c7ccccc7OC)n6)C(=O)O)c45)c(C)c3Cl)CC2)nn1 [L34-P1]', '2.96 nM'),
  ('COCCOCCOCCOCCOCCOCCOCCOCCOCCOCCOCCOCCC(=O)N(C)Cc1cc(NC(=O)[C@H](CCCNC(N)=O)NC(=O)[C@@H](NC(=O)CCOCCN2C(=O)C=CC2=O)C(C)C)ccc1C[N+]1(C)CCN(CCOc2ccc(-c3c(-c4ccc(F)cc4)sc4ncnc(O[C@H](Cc5ccccc5OCc5ccnc(-c6ccccc6OC)n5)C(=O)O)c34)c(C)c2Cl)CC1 [L32-P1]', '1.5 nM');

stdin: Please respond with reported IC50 (system NOMO-1) for COc1ccccc1-c1nccc(COc2ccccc2C[C@@H](Oc2ncnc3sc(-c4ccc(F)cc4)c(-c4ccc(OCCN5CC[N+](C)(Cc6ccc(NC(=O)[C@H](CCCNC(N)=O)NC(=O)[C@@H](NC(=O)CCOCCN7C(=O)C=CC7=O)C(C)C)cc6CN(C)C(=O)C[C@H](NC(=O)OC6O[C@H](C(=O)O)[C@@H](O)[C@H](O)[C@H]6O)C(=O)O)CC5)c(Cl)c4C)c23)C(=O)O)n1 (stereo partly drawn) [L69-P1] .
stdout: 14.8 nM

Measured values drawn from patent US20230081720A1 for this set.
